- Study Target: Histone acetyltransferase RTT109 (Saccharomyces cerevisiae (strain ATCC 204508 / S288c) (Baker's yeast)) (UniProt Q07794)
- Sequence (Q07794 whole entry): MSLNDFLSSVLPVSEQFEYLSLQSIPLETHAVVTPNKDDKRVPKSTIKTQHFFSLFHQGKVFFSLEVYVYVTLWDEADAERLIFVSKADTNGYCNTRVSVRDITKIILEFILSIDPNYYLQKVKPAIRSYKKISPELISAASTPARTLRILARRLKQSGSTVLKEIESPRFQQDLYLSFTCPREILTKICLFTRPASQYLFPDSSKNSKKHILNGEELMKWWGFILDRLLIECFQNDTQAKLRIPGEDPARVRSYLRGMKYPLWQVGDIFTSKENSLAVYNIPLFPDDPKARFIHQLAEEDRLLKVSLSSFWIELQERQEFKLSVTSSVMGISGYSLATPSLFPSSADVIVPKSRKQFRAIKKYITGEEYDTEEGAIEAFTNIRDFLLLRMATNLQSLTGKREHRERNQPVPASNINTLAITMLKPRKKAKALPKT
- Assay Notes: Inhibition of Vps75-stimulated recombinant Saccharomyces cerevisiae histone acetyltransferase Rtt109 assessed as H3K56 acetylated product at […] after 45 mins by Slot bolt inhibiton assay
Calls of active or inactive are those of the source. No rule for the calls is given here.
Log the outcome using a class from 1.0 for active, 0.0 for inactive

Query: Recorded call for Cc1cc(C)c(S(=O)(=O)Nc2cc(Br)c(O)c3ccccc23)c(C)c1 ?
Reply: 1.0

Query: Recorded call for CCOc1ccc(Nc2nc(-c3ccc(C)cc3)[n+](Cc3ccc([N+](=O)[O-])cc3)s2)cc1.[Br-] ?
Reply: 1.0

Query: Recorded call for O=C1CC(Sc2nncn2-c2ccccc2)C(=O)N1c1cc(Cl)cc(Cl)c1 (stereo not given) ?
Reply: 1.0

Query: Recorded call for O=S(=O)(Nc1cc(Sc2nc3ccccc3s2)c(O)c2ccccc12)c1ccccc1 ?
Reply: 1.0

Query: Recorded call for Cc1nnc(SC2CC(=O)N(c3ccc(Br)cc3)C2=O)s1 (stereo not given) ?
Reply: 1.0

Query: Recorded call for O=S(=O)(Nc1cc(Br)c(O)c2ccccc12)c1ccc(F)cc1 ?
Reply: 1.0

Query: Recorded call for O=[N+]([O-])c1ccc(Sc2nnc[nH]2)c2nsnc12 ?
Reply: 1.0

Query: Recorded call for Cc1ccc(-c2nc(N(c3ccccc3)c3ccccc3)s[n+]2CS(=O)(=O)c2ccccc2)cc1.[O-][Cl+3]([O-])([O-])[O-] ?
Reply: 0.0

Query: Recorded call for O=S(=O)(Nc1cc(Cl)c(O)c2ccccc12)c1ccc(Br)cc1 ?
Reply: 1.0

Query: Recorded call for O=S1(=O)C=C(Sc2nn(-c3ccccc3)c(=S)s2)c2ccccc21 ?
Reply: 1.0

Query: Recorded call for O=S1(=O)C=C(Sc2nnc(-c3ccccc3)o2)c2ccccc21 ?
Reply: 1.0

Query: Recorded call for Cn1c(Sc2ccc([N+](=O)[O-])c3nonc23)nnc1-c1ccccc1 ?
Reply: 1.0

Query: Recorded call for Cc1ccc(N2C(=O)C=CC2=O)cc1 ?
Reply: 1.0

Query: Recorded call for Cn1c(CN2CCOCC2)nnc1Sc1ccc([N+](=O)[O-])c2nonc12 ?
Reply: 1.0

Query: Recorded call for O=S(=O)(C[n+]1sc(N(c2ccccc2)c2ccccc2)nc1-c1ccccc1)c1ccccc1.[Br-] ?
Reply: 0.0

----------
- Study Target: Histone acetyltransferase RTT109 (Saccharomyces cerevisiae (strain ATCC 204508 / S288c) (Baker's yeast))
- Sequence (Q07794 whole entry): as above
- Assay Notes: Inhibition of Vps75-stimulated recombinant Saccharomyces cerevisiae histone acetyltransferase Rtt109 assessed as H3K27 acetylated product at […] after 45 mins by Slot bolt inhibiton assay
Activity calls are given as the source filed them. No rule for the calls is given here.
Log the outcome using a class from t for active, f for inactive

Query: Recorded call for CN(CCO)c1cc(Sc2nnc(-c3ccccc3)o2)c2nonc2c1[N+](=O)[O-] ?
Reply: t

Query: Recorded call for COc1ccc(-c2nc(N)s[n+]2-c2ccccc2)cc1.[Cl-] ?
Reply: t

Query: Recorded call for [O-][Cl+3]([O-])([O-])[O-].c1ccc(-c2nc(N(c3ccccc3)c3ccccc3)s[n+]2-c2ccccc2)cc1 ?
Reply: t

Query: Recorded call for O=S(=O)(Nc1cc(Br)c(O)c2ccccc12)c1ccc2ccccc2c1 ?
Reply: f

Query: Recorded call for O=C1CC(Sc2nnc(-c3ccccc3O)o2)C(=O)N1c1ccc(Br)cc1 (stereo not given) ?
Reply: t

----------
- Study Target: Histone acetyltransferase RTT109 (Saccharomyces cerevisiae (strain ATCC 204508 / S288c) (Baker's yeast))
- Assay Notes: Inhibition of Vps75-stimulated recombinant Saccharomyces cerevisiae histone acetyltransferase Rtt109 using Asf1-dH3-H4 as substrate assessed as coenzyme A production after 45 mins by CPM based HTS assay
- Details: read-out: IC50
Please assign No whenever IC50 is at or above 6 µM, and Yes whenever it is below.

Query: Would you kindly verify if IC50 of O=S(=O)(C[n+]1sc(N(c2ccccc2)c2ccccc2)nc1-c1ccccc1)c1ccccc1.[Br-] is strictly less than 6 µM?
Reply: No

Query: Would you kindly verify if IC50 of O=C1CC(Sc2nnc(-c3ccccc3O)o2)C(=O)N1c1ccc(Br)cc1 (stereo unspecified) is strictly less than 6 µM?
Reply: No

Query: Would you kindly verify if IC50 of O=C1C=CC(=O)N1c1ccccc1 is strictly less than 6 µM?
Reply: No

Query: Would you kindly verify if IC50 of Cc1ccc(S(=O)(=O)C[n+]2sc(N(c3ccccc3)c3ccccc3)nc2-c2ccccc2)cc1.[Br-] is strictly less than 6 µM?
Reply: No

Query: Would you kindly verify if IC50 of COc1ccc(-c2nnc(Sc3ccc([N+](=O)[O-])c4nonc34)o2)cc1 is strictly less than 6 µM?
Reply: Yes

Query: Would you kindly verify if IC50 of O=C1CC(Sc2nc[nH]n2)C(=O)N1c1ccccc1 (stereo unspecified) is strictly less than 6 µM?
Reply: No

Query: Would you kindly verify if IC50 of [Cl-].c1ccc(C[n+]2sc(Nc3ccccc3)nc2-c2ccccc2)cc1 is strictly less than 6 µM?
Reply: Yes

Query: Would you kindly verify if IC50 of O=[N+]([O-])c1ccc(Sc2nnc[nH]2)c2nsnc12 is strictly less than 6 µM?
Reply: Yes

Query: Would you kindly verify if IC50 of COc1ccc(N2C(=O)C=CC2=O)cc1 is strictly less than 6 µM?
Reply: No

Query: Would you kindly verify if IC50 of CN(C)c1nc(-c2ccccc2)[n+](C)s1.[O-][Cl+3]([O-])([O-])[O-] is strictly less than 6 µM?
Reply: Yes

Query: Would you kindly verify if IC50 of COc1ccc(Cc2nnc(SC3=CS(=O)(=O)c4ccccc43)o2)cc1 is strictly less than 6 µM?
Reply: No

Query: Would you kindly verify if IC50 of Cc1ccc(S(=O)(=O)Nc2cc(Sc3nnnn3-c3ccccc3)c(O)c3ccccc23)cc1 is strictly less than 6 µM?
Reply: No

Query: Would you kindly verify if IC50 of COc1ccc(-c2nnc(Sc3ccc([N+](=O)[O-])c4nonc34)[nH]2)cc1 is strictly less than 6 µM?
Reply: Yes

Query: Would you kindly verify if IC50 of O=S(=O)(Nc1cc(Sc2nc[nH]n2)c(O)c2ccccc12)c1ccc(Cl)cc1 is strictly less than 6 µM?
Reply: Yes

Query: Would you kindly verify if IC50 of O=C1C=CC(=O)N1c1ccc(Oc2ccccc2)cc1 is strictly less than 6 µM?
Reply: Yes

Query: Would you kindly verify if IC50 of O=S(=O)(Nc1cc(Br)c(O)c2ccccc12)c1ccc(F)cc1 is strictly less than 6 µM?
Reply: Yes

Query: Would you kindly verify if IC50 of O=S(=O)(Nc1cc(Sc2cccc3cccnc23)c(O)c2ccccc12)c1ccccc1 is strictly less than 6 µM?
Reply: Yes

Query: Would you kindly verify if IC50 of Nc1ncnc2[nH]c(Sc3c([N+](=O)[O-])cc(Br)c4nsnc34)nc12 is strictly less than 6 µM?
Reply: Yes

Query: Would you kindly verify if IC50 of CC(C)(C)c1ccc(S(=O)(=O)Nc2ccc(O)c(Cl)c2)cc1 is strictly less than 6 µM?
Reply: No

Query: Would you kindly verify if IC50 of O=[N+]([O-])c1cc(Br)c2nsnc2c1Sc1ncnc2[nH]cnc12 is strictly less than 6 µM?
Reply: Yes

Query: Would you kindly verify if IC50 of O=[N+]([O-])c1cccc(S(=O)(=O)Nc2cc(Br)c(O)c3ccccc23)c1 is strictly less than 6 µM?
Reply: Yes

Query: Would you kindly verify if IC50 of COc1ccc(N2C(=O)CC(Sc3n[nH]c(-c4ccc(C)cc4)n3)C2=O)cc1 (stereo unspecified) is strictly less than 6 µM?
Reply: No

Query: Would you kindly verify if IC50 of O=C1C=CC(=O)N1c1ccc(Br)cc1 is strictly less than 6 µM?
Reply: Yes

Query: Would you kindly verify if IC50 of Cc1ccc(Sc2cc(NS(=O)(=O)c3ccc(Cl)cc3)c3ccccc3c2O)cc1 is strictly less than 6 µM?
Reply: Yes

Query: Would you kindly verify if IC50 of O=C1CC(Sc2nncn2-c2ccccc2)C(=O)N1c1cc(Cl)cc(Cl)c1 (stereo unspecified) is strictly less than 6 µM?
Reply: No

Query: Would you kindly verify if IC50 of O=[N+]([O-])c1cccc(S(=O)(=O)Nc2cc(SCc3ccccc3)c(O)c3ccccc23)c1 is strictly less than 6 µM?
Reply: Yes

Query: Would you kindly verify if IC50 of O=C1C=CC(=O)N1c1cc(Cl)cc(Cl)c1 is strictly less than 6 µM?
Reply: Yes

Query: Would you kindly verify if IC50 of O=C1C=CC(=O)N1c1ccc2ccccc2c1 is strictly less than 6 µM?
Reply: Yes

Query: Would you kindly verify if IC50 of O=C(O)CSc1cc(Cl)c2nonc2c1[N+](=O)[O-] is strictly less than 6 µM?
Reply: No

Query: Would you kindly verify if IC50 of O=S(=O)(Nc1cc(SCc2ccco2)c(O)c2ccccc12)c1ccccc1 is strictly less than 6 µM?
Reply: Yes

Query: Would you kindly verify if IC50 of COc1ccc(N2C(=O)CC(Sc3n[nH]c(-c4ccccc4)n3)C2=O)cc1 (stereo unspecified) is strictly less than 6 µM?
Reply: No

Query: Would you kindly verify if IC50 of Cc1ccc(S(=O)(=O)C[n+]2sc(N(c3ccccc3)c3ccccc3)nc2-c2ccccc2)cc1.[Cl-] is strictly less than 6 µM?
Reply: No

Query: Would you kindly verify if IC50 of O=[N+]([O-])c1c(Sc2ncnc3[nH]cnc23)cc(Cl)c2nsnc12 is strictly less than 6 µM?
Reply: Yes

Query: Would you kindly verify if IC50 of [Br-].c1ccc(CNc2nc(-c3ccccc3)[n+](-c3ccccc3)s2)cc1 is strictly less than 6 µM?
Reply: Yes
